# system-tested: ALK tyrosine kinase receptor (Homo sapiens)
# Sequence (Q9UM73 whole entry): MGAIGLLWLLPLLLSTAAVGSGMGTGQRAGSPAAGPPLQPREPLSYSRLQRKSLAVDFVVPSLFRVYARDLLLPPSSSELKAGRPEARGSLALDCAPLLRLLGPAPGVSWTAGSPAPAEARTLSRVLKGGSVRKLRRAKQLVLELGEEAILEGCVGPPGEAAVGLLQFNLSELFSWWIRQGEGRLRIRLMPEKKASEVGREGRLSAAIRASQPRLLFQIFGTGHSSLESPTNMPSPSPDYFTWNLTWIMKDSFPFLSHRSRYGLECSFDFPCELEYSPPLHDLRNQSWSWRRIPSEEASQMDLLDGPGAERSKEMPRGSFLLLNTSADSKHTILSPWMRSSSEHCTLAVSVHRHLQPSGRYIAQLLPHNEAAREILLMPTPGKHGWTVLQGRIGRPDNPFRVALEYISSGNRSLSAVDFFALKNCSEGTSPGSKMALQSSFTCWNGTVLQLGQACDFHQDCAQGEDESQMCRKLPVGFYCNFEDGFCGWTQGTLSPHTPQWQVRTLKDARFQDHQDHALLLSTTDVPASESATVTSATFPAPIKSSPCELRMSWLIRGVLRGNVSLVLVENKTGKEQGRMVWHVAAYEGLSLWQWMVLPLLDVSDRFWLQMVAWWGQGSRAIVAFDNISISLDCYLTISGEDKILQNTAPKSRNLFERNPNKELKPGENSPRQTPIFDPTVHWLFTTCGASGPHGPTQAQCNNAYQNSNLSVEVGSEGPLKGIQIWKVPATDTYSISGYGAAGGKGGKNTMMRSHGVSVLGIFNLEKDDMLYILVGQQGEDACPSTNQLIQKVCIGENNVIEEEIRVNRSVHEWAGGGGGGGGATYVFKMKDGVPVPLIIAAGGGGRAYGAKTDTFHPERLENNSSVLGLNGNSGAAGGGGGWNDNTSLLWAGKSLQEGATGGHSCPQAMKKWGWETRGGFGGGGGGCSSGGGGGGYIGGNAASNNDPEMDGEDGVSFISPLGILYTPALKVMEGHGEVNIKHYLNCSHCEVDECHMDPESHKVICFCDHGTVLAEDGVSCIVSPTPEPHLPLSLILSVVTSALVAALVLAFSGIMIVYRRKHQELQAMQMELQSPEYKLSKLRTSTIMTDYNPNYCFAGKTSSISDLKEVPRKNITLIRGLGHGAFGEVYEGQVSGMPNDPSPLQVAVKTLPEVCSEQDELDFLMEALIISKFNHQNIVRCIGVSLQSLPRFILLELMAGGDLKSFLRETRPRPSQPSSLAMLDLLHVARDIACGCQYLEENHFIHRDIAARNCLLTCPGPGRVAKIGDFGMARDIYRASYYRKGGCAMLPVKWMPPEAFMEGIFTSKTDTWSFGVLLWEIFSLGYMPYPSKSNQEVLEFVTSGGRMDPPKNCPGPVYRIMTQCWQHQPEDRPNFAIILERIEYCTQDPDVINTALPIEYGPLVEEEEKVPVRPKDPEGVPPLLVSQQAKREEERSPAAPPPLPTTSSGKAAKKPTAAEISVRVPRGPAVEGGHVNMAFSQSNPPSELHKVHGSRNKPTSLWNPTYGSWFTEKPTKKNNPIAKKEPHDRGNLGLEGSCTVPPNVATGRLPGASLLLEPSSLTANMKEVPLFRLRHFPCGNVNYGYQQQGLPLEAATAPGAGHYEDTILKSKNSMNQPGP
measured-quantity: pIC50
The scale used: pIC50 is minus the common logarithm of the concentration in molar units.

Item: COc1cc(Nc2nccc(N3CCC[C@H](C(=O)NCc4cccc(N5CCOCC5)c4)C3)n2)cc(OC)c1OC Test system: ALK tyrosine kinase receptor (Homo sapiens) Read-out: pIC50 Value: ?
7.55

====

The following are reported IC50 results, target or system ALK tyrosine kinase receptor (Homo sapiens, UniProt Q9UM73).
Answer in µM, number only, no unit symbol.

Some solved entries appear below for comparison.
smiles-representation: COc1cc(Nc2nccc(N3CCC[C@H](C(=O)NCCCc4ccccc4)C3)n2)cc(OC)c1OC
endpoint-result: 6.71
--
smiles-representation: COc1cc(Nc2nccc(N3CCC[C@H](C(=O)NCc4ccc([N+](=O)[O-])cc4)C3)n2)cc(OC)c1OC
endpoint-result: 2.93
--
smiles-representation: COc1cc(Nc2nccc(N3CCC[C@H](C(=O)NCc4cccc(N5CCOCC5)c4)C3)n2)cc(OC)c1OC
endpoint-result: 0.031

Please find the next molecule below.
Report IC50 for Cc1ccc(CNC(=O)[C@H]2CCCN(c3ccnc(Nc4ccc(Cl)cc4)n3)C2)cc1 please.
6.3
